TESTED ON: T1, biotin-labeled recombinant EGFRvIII protein (UniProt P00533 25-645, biotin-labeled)
T1 construct: the construct is not described
PROTOCOL SUMMARY: competitive ELISA; competitor Murine anti-75G7
ATTRIBUTE MEASURED: competition rate (%)
API: value field is a number in %; no unit string.

Below: 3 binders and their reported competition rate.
[[record]]
binder = "Murine anti-63A10 (antibody, V domains shown, Mouse hybridoma antibody; also called 63A10A7) VH: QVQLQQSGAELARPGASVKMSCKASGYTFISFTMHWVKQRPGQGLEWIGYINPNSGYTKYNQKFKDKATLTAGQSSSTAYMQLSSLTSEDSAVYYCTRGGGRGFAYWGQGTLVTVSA VL: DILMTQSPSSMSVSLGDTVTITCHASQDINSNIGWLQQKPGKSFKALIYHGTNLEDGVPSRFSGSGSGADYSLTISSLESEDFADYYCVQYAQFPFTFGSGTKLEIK"
attribute_measured = "competition rate"
assay_value = 20

[[record]]
binder = "Murine anti-75G7 (antibody, V domains shown, Mouse hybridoma antibody; also called 75G7C6) VH: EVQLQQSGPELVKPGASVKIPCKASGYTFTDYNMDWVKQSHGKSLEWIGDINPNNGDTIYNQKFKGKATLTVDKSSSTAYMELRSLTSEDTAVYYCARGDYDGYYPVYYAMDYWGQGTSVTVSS VL: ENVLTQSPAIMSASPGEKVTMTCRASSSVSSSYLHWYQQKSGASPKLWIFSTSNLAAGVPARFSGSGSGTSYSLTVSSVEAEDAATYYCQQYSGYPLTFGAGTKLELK"
attribute_measured = "competition rate"
assay_value = 67

[[record]]
binder = "Murine anti-64F1 (antibody, V domains shown, Mouse hybridoma antibody; also called 64F1F8) VH: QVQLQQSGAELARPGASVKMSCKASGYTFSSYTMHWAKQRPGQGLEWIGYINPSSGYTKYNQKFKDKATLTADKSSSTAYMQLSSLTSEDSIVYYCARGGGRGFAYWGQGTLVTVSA VL: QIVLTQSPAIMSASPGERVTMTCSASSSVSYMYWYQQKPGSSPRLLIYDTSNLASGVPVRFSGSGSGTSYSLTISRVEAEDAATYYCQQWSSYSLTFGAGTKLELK"
attribute_measured = "competition rate"
assay_value = 13


Now for a further binder.
**Query** Fill in reported competition rate for this entry: Murine anti-7E5 (antibody, V domains shown, Mouse hybridoma antibody; also called 7E5-2A9; murine anti-7E5-2) VH: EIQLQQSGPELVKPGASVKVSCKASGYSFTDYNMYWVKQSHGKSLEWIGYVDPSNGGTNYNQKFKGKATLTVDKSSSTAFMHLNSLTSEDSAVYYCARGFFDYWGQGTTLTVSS VL: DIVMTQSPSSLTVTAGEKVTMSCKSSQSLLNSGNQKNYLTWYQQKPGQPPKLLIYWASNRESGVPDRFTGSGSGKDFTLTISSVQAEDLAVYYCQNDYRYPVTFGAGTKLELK
**Result** 23
